assay: soluble on expression in E. coli; label from the status in PepcDB or PDB records

# SEQUENCE CHAIN, soluble on expression in E. coli
records = [
    ("MSLSIYKDINIASAKPSLKERKNIKHYALDHLNIDEKNNAPLFKTLLEDAMRVSSKEILLIVGGSSFYLKSILEGLSRMPKLSGEEVVKIEREIATLSNPYIFLKSIDPNMAFKIHPNDTYRTHKALEIFYATCTPPSEYFKANPKKPFEHAISLFALSIEKSALHNNIKRRTKNMLHSGLVEEIKALYTQYPKDSQPFKAIGVKESVLFLEKRLTLKELEEAITSNTMKLAKRQNTFNKTQFNNLYVGSAEEVRHAILKHSKSGIKGEGHHHHHH", "not soluble"),
    ("MGSSHHHHHHGGTGENLYFQGGSGATAQNANPECVGPESPQAGIAPSCQGCPNAAICASAPKGPDPDIPLIRERLAGVKHKVMVVSGKGGVGKSTMTKELAFALGARGLSVGLMDMDICGPSLPRLTGVRGEDAHQSAGGIEPVLVDENVTMMSMHYLLSDKNEAVLFRGPRKNGVIKMFLKDVIWGNLDVLLIDTPPGTSDEHITVNSLLQQTTNGVDGAVLITTPQRVAEADVRREVNFCQKAKLPILGLVENMSGFVCPGCHKESQIFPKEEGGEGRKEGAGVRLSREFDVPLWGEVPLDPQLMKACEEGISFSEYVEKSGMTSSTTLDALFTVADQLIASLGIQVE", "not soluble"),
]
